Target: Muscarinic acetylcholine receptor M2 (Homo sapiens, UniProt P08172); note: assay procedure not described here
Sequence (P08172 whole entry): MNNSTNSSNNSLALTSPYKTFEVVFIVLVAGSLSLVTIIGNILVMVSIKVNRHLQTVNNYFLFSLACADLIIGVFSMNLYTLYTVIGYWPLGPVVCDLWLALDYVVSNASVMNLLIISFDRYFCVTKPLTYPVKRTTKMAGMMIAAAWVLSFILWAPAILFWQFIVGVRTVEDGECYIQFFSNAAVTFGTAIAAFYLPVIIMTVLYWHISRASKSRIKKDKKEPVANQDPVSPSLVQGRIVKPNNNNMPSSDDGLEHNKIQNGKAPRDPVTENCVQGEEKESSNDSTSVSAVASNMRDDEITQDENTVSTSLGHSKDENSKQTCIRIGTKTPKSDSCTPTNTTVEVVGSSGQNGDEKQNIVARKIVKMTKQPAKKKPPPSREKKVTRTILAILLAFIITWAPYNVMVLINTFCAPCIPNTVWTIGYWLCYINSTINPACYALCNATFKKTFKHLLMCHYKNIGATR
Format: functional, cell-based
QUANTITY MEASURED: AC50

Qu. Dear colleague, I am looking for the recorded AC50 of the following molecule: `CC(=O)[C@H]1CC[C@H]2[C@@H]3C[C@H](C)C4=CC(=O)CC[C@]4(C)[C@H]3[C@@H](O)C[C@]12C`
Ans. > 10 µM

Qu. Dear colleague, I am looking for the recorded AC50 of the following molecule: `C[C@]12C/C(=C/O)C(=O)C[C@@H]1CC[C@@H]1[C@@H]2CC[C@@]2(C)[C@H]1CC[C@]2(C)O`
Ans. > 30 µM

Qu. Dear colleague, I am looking for the recorded AC50 of the following molecule: CC(C)[C@@H](C)/C=C/[C@@H](C)[C@H]1CC[C@H]2/C(=C/C=C3\C[C@@H](O)CC[C@@H]3C)CCC[C@]12C [DIHYDROTACHYSTEROL]
Ans. > 10 µM

Qu. Dear colleague, I am looking for the recorded AC50 of the following molecule: `COc1cc(C)c(/C=C/C(C)=C/C=C/C(C)=C/C(=O)O)c(C)c1C`
Ans. > 10 µM

Qu. Dear colleague, I am looking for the recorded AC50 of the following molecule: `O=C(NCCO[N+](=O)[O-])c1cccnc1`
Ans. > 30 µM

Qu. Dear colleague, I am looking for the recorded AC50 of the following molecule: `Cc1ccccc1-n1c(CF)nc2ccc(N)cc2c1=O`
Ans. > 10 µM

Qu. Dear colleague, I am looking for the recorded AC50 of the following molecule: `CCOC(=O)C1=C(C)NC(C)=C(C(=O)OCC)C1c1ccccc1/C=C/C(=O)OC(C)(C)C`
Ans. > 30 µM

Qu. Dear colleague, I am looking for the recorded AC50 of the following molecule: CC(C(=O)O)c1ccc2oc(-c3ccc(Cl)cc3)nc2c1 (stereo not drawn)
Ans. > 30 µM

The measured values listed here are drawn from ChEMBL document CHEMBL5291721.
